- Tested on: NCI-H23 lung
- test.method.notes: NCI tumour cell line growth inhibition, 48 h
observation.type: TGI

These recorded examples may help you get a feel for the data.
molecule	subject.of.test	TGI
COc1ccc(-c2cc(-c3cc(Cl)ccc3Cl)nc3n[nH]c(N)c23)cc1	NCI-H23 lung	> 100 µM
N#CN=C(N)c1sc2nc3c(c(-c4ccc(Br)cc4)c2c1N)CCCC3	NCI-H23 lung	66.9 µM
CCOC(=O)c1ccc2[nH]c(-c3ccc(S(=O)(=O)F)cc3)cc(=O)c2c1	NCI-H23 lung	47 µM
O=C[C@@H](CO)O[C@H](C=O)c1c[nH]c(=O)[nH]c1=O	NCI-H23 lung	539 µM
FC(F)(F)c1nc(N2CCCC2)ncc1-c1nnnn1-c1ccc(Cl)cc1	NCI-H23 lung	51.8 µM

List reported TGI for each of these molecules:
1. CCCCON(OC(=O)c1ccccc1)C(=O)c1ccccc1
2. C=CCn1c(=O)c2ccccc2[n+]2c(C)c(C(=O)OCC)sc12
3. COc1ccc2oc(=O)cc(C(c3ccc[nH]3)c3ccc[nH]3)c2c1
4. CCCCCCCC1C(C)c2c([nH]c3ccccc23)C2C(=O)N(c3ccc(OC)cc3)C(=O)C21 (stereo not drawn)
5. CCOC(=O)c1ccc(Nc2cnc3cc(C(F)(F)F)ccc3n2)cc1
6. C=C(CN(C)C)C(=O)c1ccccc1C

Response:
> 100 µM
> 100 µM
14 µM
6.99 µM
> 100 µM
> 100 µM

List reported TGI for each of these molecules:
1. C=C1C(=O)O[C@H]2[C@H]1CC/C(CNC(=O)Cc1c[nH]c3ccccc13)=C\CC[C@@]1(C)O[C@@H]21
2. COc1ccc(/C=C2\CCCC(CN(C)C)C2=O)cc1 (stereo not drawn)
3. O=P1(C(O)/C=C/c2ccccc2)N(Cc2ccccc2)[C@H](c2ccccc2)[C@@H](c2ccccc2)N1Cc1ccccc1 (stereo partly drawn)
4. OCC1OC(n2nc(-c3ccccc3)nc2-c2cnccn2)C(O)C(O)C1O (stereo not drawn)

Response:
["18.6 µM", "13.9 µM", "> 59.2 µM", "> 100 µM"]

List reported TGI for each of these molecules:
1. CCC(C)n1c(C)nc2c1C(=O)c1ccccc1C2=O (stereo not drawn)
2. Cc1ccc2c(c1)C(C)Cc1c(ncnc1-n1cnc3ccccc31)N2C (stereo not drawn)
3. COC(=O)c1c2c(cc3c1CC1(Cc4cc5c(c(C=O)c4C1)CCCC5)C3)CCCC2 (stereo not drawn)

Response:
["> 100 µM", "18 µM", "> 100 µM"]

List reported TGI for each of these molecules:
1. COc1cc(/C=C/c2ccncc2)cc(OC)c1OC
2. COc1cc(-c2cn(S(=O)(=O)c3ccc(C)cc3)c3ccccc23)nc(-c2cn(S(=O)(=O)c3ccc(C)cc3)c3ccccc23)n1
3. COc1cc(C=O)ccc1Oc1nnnn1-c1ccccc1
4. CC1(C)CC(=O)C(CCC(=O)/C=C/c2ccccc2)C(=O)C1
5. CCNC(C)Cc1ccccc1 (stereo not drawn)

Response:
> 100 µM
0.927 µM
> 100 µM
> 100 µM
> 100 µM

List reported TGI for each of these molecules:
1. O=c1cc(NCCCCCO)[nH]c(=O)[nH]1
2. O=C(O)C/C(=C\c1ccco1)C(=O)O
3. CCc1ccc(N=Cc2cc(OC)c(OC)c(OC)c2)cc1
4. C=CC[n+]1c(/C=C/C=C2\N(C)c3ccccc3C2(C)C)sc2ccc(OC)cc21
5. CC1CC[C@]2(C(=O)O)CCC3(COC(=O)/C=C\c4ccc(O)cc4)C(=CCC4[C@@]5(C)CC[C@H](O)C(C)(C)C5CC[C@]43C)[C@@H]2[C@H]1C (stereo partly drawn)

Response:
["> 100 µM", "> 100 µM", "> 100 µM", "12.9 µM", "28.5 µM"]

List reported TGI for each of these molecules:
1. Nc1sc2c(c1C(=O)c1ccc(Cl)c(Cl)c1)CCCC2
2. COc1ccccc1NC(=O)c1sc2nc3c(cc2c1N)C(=O)CCC3

Response:
> 100 µM
> 100 µM

List reported TGI for each of these molecules:
1. CS(=O)(=O)c1ccc(/C=N/NC(N)=S)cc1
2. CN1N=CSC12C(=O)N(c1ccc(Cl)cc1)C(=O)N2c1ccc(Cl)cc1 (stereo not drawn)
3. O=C(/C=C1\N=C(c2ccccc2)N(c2nc3ccc(Sc4ccccc4)cc3[nH]2)C1=O)/C=C/c1ccccc1

Response:
["> 100 µM", "5.14 µM", "> 100 µM"]

meta.source: PubChem BioAssay (NCI)
